experiment: Plasma protein binding in human measured at 150 uM preincubated for 30 mins followed by addition of dialysis buffer measured after 4 hrs by LC-MS/MS analysis; format: ADME, cell-free; details: read-out: PPB (converted)
Below, each of the molecules is paired with its reported fraction unbound at 4 h, 150 µM value.
readout_kind: fraction unbound at 4 h, 150 µM

>  <chemical_structure>
CC1(C)CCn2c(=O)c(=O)n(Cc3nn[nH]n3)c3cccc1c32

>  <reported_result>
0.0205

$$$$
>  <chemical_structure>
CC1(C)CCn2c(=O)c(=O)n(CCCO)c3cccc1c32

>  <reported_result>
0.389

$$$$
>  <chemical_structure>
Cc1cc2c3c(c1C)C(C)(C)CCn3c(=O)c(=O)n2C[C@H](O)[C@H](O)[C@H](O)CO

>  <reported_result>
0.412

$$$$
>  <chemical_structure>
CO[C@@H]1O[C@H](Cn2c(=O)n3c4c(cccc42)C(C)(C)CC3)[C@@H](O)[C@H]1O

>  <reported_result>
0.338

$$$$
>  <chemical_structure>
CC1(C)CCn2c(=O)n(C[C@H](O)[C@H](O)[C@H](O)CO)c3cccc1c32

>  <reported_result>
0.578

$$$$

====

assay: Solubility of compound in DMSO at pH 7.4 after 5 mins measured by HPLC analysis; assay type: physicochemical

>  <chemical_structure>
CO[C@@H]1O[C@H](Cn2c(=O)n3c4c(cccc42)C(C)(C)CC3)[C@@H](O)[C@H]1O

>  <units_text>
µM

>  <solubility at 5 min>
48.5

$$$$
>  <chemical_structure>
CC1(C)CCn2c(=O)c(=O)n(CCCO)c3cccc1c32

>  <units_text>
µM

>  <solubility at 5 min>
50.1

$$$$
>  <chemical_structure>
Cc1cc2c3c(c1C)C(C)(C)CCn3c(=O)c(=O)n2C[C@H](O)[C@H](O)[C@H](O)CO

>  <units_text>
µM

>  <solubility at 5 min>
49.4

$$$$
